assay.protocol: Phase 1 relative bioavailability study part 1: plasma pharmacokinetics of fedratinib (2-period crossover)
Type: in vivo, human
test.parameters: human, plasma, po, 400 mg, Treatment 1A: single 400 mg oral, intact capsules with nutritional supplement; n = 27; read-out: Tmax, median (statistical analysis)
Procedure: Study part 1 was a 2-period, 2-sequence, open-label, crossover design (Fig. 1A). […] For study part 1, and part 2 treatments 2A and 2B, blood samples were collected pre-dose (0 h) and at 0.5, 1, 1.5, 2, 3, 4, 6, 8, 12, 24, 48, 72, 120, 168, 192, and 240 h post-dose. […] The plasma concentration of fedratinib was measured using a validated liquid chromatography-tandem mass spectrometry assay with a lower limit of quantification of 1.00 ng/mL [12, 20]. […]
test.readout: Tmax (h)

molecule="Cc1cnc(Nc2ccc(OCCN3CCCC3)cc2)nc1Nc1cccc(S(=O)(=O)NC(C)(C)C)c1 [fedratinib]" result_value=2.57

----------
assay.protocol: Phase 1 relative bioavailability study part 1: plasma pharmacokinetics of fedratinib (2-period crossover)
Assay type: in vivo, human
test.parameters: human, plasma, po, 400 mg, Treatment 1B: single 400 mg oral, capsule contents dispersed in nutritional supplement; n = 26; read-out: Cmax, geometric mean (statistical analysis)
test.readout: Cmax (ng/mL)

smiles_notation=Cc1cnc(Nc2ccc(OCCN3CCCC3)cc2)nc1Nc1cccc(S(=O)(=O)NC(C)(C)C)c1 test_readout=Cmax result_value=1430

----------
assay.protocol: Phase 1 relative bioavailability study part 2: plasma pharmacokinetics of fedratinib (3-period crossover)
Type: in vivo, human
test.parameters: human, plasma, other: nasogastric tube, 400 mg, Treatment 2B: single 400 mg via nasogastric tube, capsule contents dispersed in nutritional supplement; n = 30; read-out: AUC0–∞, geometric mean (Geo. %CV)
Experimental: Study part 2 was a 3-period, 6-sequence, open-label, crossover design (Fig. 1B). Treatment 2A (reference) consisted of fedratinib 400 mg (4 × 100-mg capsules) administered orally alongside a nutritional supplement. […] Plasma PK parameters were calculated using noncompartmental methods by a validated PK analysis program (Phoenix® WinNonlin®, v8.3.4 [Certara USA, Inc., Princeton, NJ, USA]) using actual times. […] AUC parameters were calculated using the linear-log trapezoidal method. […]
test.readout: AUC(0-inf) (ng·h/mL)

smiles_notation=Cc1cnc(Nc2ccc(OCCN3CCCC3)cc2)nc1Nc1cccc(S(=O)(=O)NC(C)(C)C)c1 measurement_units=ng·h/mL result_value=21600

----------
assay.protocol: Phase 1 relative bioavailability study part 2: plasma pharmacokinetics of fedratinib (3-period crossover)
Type: in vivo, human
test.parameters: human, plasma, oral, 400 mg, Treatment 2C: 400 mg divided dose (2 × 100-mg capsules BID); after first dose; n = 30; read-out: Cmax, geometric mean (statistical analysis)
test.readout: Cmax (ng/mL)

smiles_notation=Cc1cnc(Nc2ccc(OCCN3CCCC3)cc2)nc1Nc1cccc(S(=O)(=O)NC(C)(C)C)c1 result_value=641

----------
assay.protocol: Phase 1 relative bioavailability study part 1: plasma pharmacokinetics of fedratinib (2-period crossover)
Type: in vivo, human
test.parameters: human, plasma, po, 400 mg, Treatment 1B: single 400 mg oral, capsule contents dispersed in nutritional supplement; n = 26; read-out: AUC0–t, geometric mean (statistical analysis)
test.readout: AUC(0-t) (ng·h/mL)

compound="Cc1cnc(Nc2ccc(OCCN3CCCC3)cc2)nc1Nc1cccc(S(=O)(=O)NC(C)(C)C)c1 [fedratinib]" test_readout=AUC(0-t) result_value=20500

----------
assay.protocol: Phase 1 relative bioavailability study part 1: plasma pharmacokinetics of fedratinib (2-period crossover)
Type: in vivo, human
test.parameters: human, plasma, po, 400 mg, Treatment 1A: single 400 mg oral, intact capsules with nutritional supplement; n = 27; read-out: AUC0–∞, geometric mean (statistical analysis)
test.readout: AUC(0-inf) (ng·h/mL)

compound="Cc1cnc(Nc2ccc(OCCN3CCCC3)cc2)nc1Nc1cccc(S(=O)(=O)NC(C)(C)C)c1 [fedratinib]" result_value=22500

----------
assay.protocol: Phase 1 relative bioavailability study part 2: plasma pharmacokinetics of fedratinib (3-period crossover)
Assay type: in vivo, human
test.parameters: human, plasma, oral, 400 mg, Treatment 2C: 400 mg divided dose (2 × 100-mg capsules BID); n = 30; read-out: AUC0–t, geometric mean (statistical analysis)
test.readout: AUC(0-t) (ng·h/mL)

smiles_notation=Cc1cnc(Nc2ccc(OCCN3CCCC3)cc2)nc1Nc1cccc(S(=O)(=O)NC(C)(C)C)c1 result_value=18900

----------
assay.protocol: Phase 1 relative bioavailability study part 1: plasma pharmacokinetics of fedratinib (2-period crossover)
Type: in vivo, human
test.parameters: human, plasma, po, 400 mg, Treatment 1B: single 400 mg oral, capsule contents dispersed in nutritional supplement; n = 26; read-out: t½, mean (SD) (converted)
test.readout: half-life (days)

smiles_notation=Cc1cnc(Nc2ccc(OCCN3CCCC3)cc2)nc1Nc1cccc(S(=O)(=O)NC(C)(C)C)c1 result_value=4.11

----------
assay.protocol: Phase 1 relative bioavailability study part 2: plasma pharmacokinetics of fedratinib (3-period crossover)
Assay type: in vivo, human
test.parameters: human, plasma, other: nasogastric tube, 400 mg, Treatment 2B: single 400 mg via nasogastric tube, dispersed in nutritional supplement; n = 30; read-out: Tmax, median (statistical analysis)
test.readout: Tmax (h)

compound="Cc1cnc(Nc2ccc(OCCN3CCCC3)cc2)nc1Nc1cccc(S(=O)(=O)NC(C)(C)C)c1 [fedratinib]" measurement_units=h result_value=1.87

----------
assay.protocol: Phase 1 relative bioavailability study part 1: plasma pharmacokinetics of fedratinib (2-period crossover)
Assay type: in vivo, human
test.parameters: human, plasma, po, 400 mg, Treatment 1B: single 400 mg oral, capsule contents dispersed in nutritional supplement; n = 26; read-out: AUC0–t, geometric mean (Geo. %CV)
test.readout: AUC(0-t) (ng·h/mL)

smiles_notation=Cc1cnc(Nc2ccc(OCCN3CCCC3)cc2)nc1Nc1cccc(S(=O)(=O)NC(C)(C)C)c1 measurement_units=ng·h/mL result_value=20500

----------
assay.protocol: Phase 1 relative bioavailability study part 2: plasma pharmacokinetics of fedratinib (3-period crossover)
Type: in vivo, human
test.parameters: human, plasma, oral, 400 mg, Treatment 2C: 400 mg divided dose (2 × 100-mg capsules BID); after first dose; n = 30; read-out: Tmax, median (statistical analysis)
test.readout: Tmax

smiles_notation=Cc1cnc(Nc2ccc(OCCN3CCCC3)cc2)nc1Nc1cccc(S(=O)(=O)NC(C)(C)C)c1 test_readout=Tmax result_value="2.26 h"

----------
assay.protocol: Phase 1 relative bioavailability study part 1: plasma pharmacokinetics of fedratinib (2-period crossover)
Format: in vivo, human
test.parameters: human, plasma, po, 400 mg, Treatment 1A: single 400 mg oral, 4 × 100-mg intact capsules with nutritional supplement; n = 27; read-out: AUC0–∞, geometric mean (Geo. %CV)
test.readout: AUC(0-inf) (ng·h/mL)

smiles_notation=Cc1cnc(Nc2ccc(OCCN3CCCC3)cc2)nc1Nc1cccc(S(=O)(=O)NC(C)(C)C)c1 test_readout=AUC(0-inf) result_value=22100

----------
assay.protocol: Phase 1 relative bioavailability study part 1: plasma pharmacokinetics of fedratinib (2-period crossover)
Format: in vivo, human
test.parameters: human, plasma, po, 400 mg, Treatment 1B: single 400 mg oral, capsule contents dispersed in nutritional supplement; n = 26; read-out: Cmax, geometric mean (Geo. %CV)
test.readout: Cmax

compound="Cc1cnc(Nc2ccc(OCCN3CCCC3)cc2)nc1Nc1cccc(S(=O)(=O)NC(C)(C)C)c1 [fedratinib]" result_value="1430 ng/mL"

----------
assay.protocol: Phase 1 relative bioavailability study part 2: plasma pharmacokinetics of fedratinib (3-period crossover)
Assay type: in vivo, human
test.parameters: human, plasma; Treatment 2C: 400 mg oral divided dose (2 × 100-mg capsules BID) with nutritional supplement; from time 0 (first dose) through 240 h; n = 30; read-out: AUC0–t, geometric mean (Geo. %CV)
test.readout: AUC(0-t) (ng·h/mL)

molecule="Cc1cnc(Nc2ccc(OCCN3CCCC3)cc2)nc1Nc1cccc(S(=O)(=O)NC(C)(C)C)c1 [fedratinib]" result_value=18900

----------
assay.protocol: Phase 1 relative bioavailability study part 2: plasma pharmacokinetics of fedratinib (3-period crossover)
Format: in vivo, human
test.parameters: human, plasma, other: nasogastric tube, 400 mg, Treatment 2B: single 400 mg via nasogastric tube, dispersed in nutritional supplement; n = 30; read-out: AUC0–t, geometric mean (statistical analysis)
test.readout: AUC(0-t)

smiles_notation=Cc1cnc(Nc2ccc(OCCN3CCCC3)cc2)nc1Nc1cccc(S(=O)(=O)NC(C)(C)C)c1 test_readout=AUC(0-t) result_value="19200 ng·h/mL"

----------
assay.protocol: Phase 1 relative bioavailability study part 2: plasma pharmacokinetics of fedratinib (3-period crossover)
Assay type: in vivo, human
test.parameters: human, plasma, other: nasogastric tube, 400 mg, Treatment 2B: single 400 mg via nasogastric tube, capsule contents dispersed in nutritional supplement; n = 30; read-out: t½, mean (SD) (converted)
test.readout: half-life (h)

smiles_notation=Cc1cnc(Nc2ccc(OCCN3CCCC3)cc2)nc1Nc1cccc(S(=O)(=O)NC(C)(C)C)c1 measurement_units=h result_value=106
